# study-target: P70S6K (Homo sapiens, UniProt P23443, T412E)
# Sequence (P23443 whole entry T412E): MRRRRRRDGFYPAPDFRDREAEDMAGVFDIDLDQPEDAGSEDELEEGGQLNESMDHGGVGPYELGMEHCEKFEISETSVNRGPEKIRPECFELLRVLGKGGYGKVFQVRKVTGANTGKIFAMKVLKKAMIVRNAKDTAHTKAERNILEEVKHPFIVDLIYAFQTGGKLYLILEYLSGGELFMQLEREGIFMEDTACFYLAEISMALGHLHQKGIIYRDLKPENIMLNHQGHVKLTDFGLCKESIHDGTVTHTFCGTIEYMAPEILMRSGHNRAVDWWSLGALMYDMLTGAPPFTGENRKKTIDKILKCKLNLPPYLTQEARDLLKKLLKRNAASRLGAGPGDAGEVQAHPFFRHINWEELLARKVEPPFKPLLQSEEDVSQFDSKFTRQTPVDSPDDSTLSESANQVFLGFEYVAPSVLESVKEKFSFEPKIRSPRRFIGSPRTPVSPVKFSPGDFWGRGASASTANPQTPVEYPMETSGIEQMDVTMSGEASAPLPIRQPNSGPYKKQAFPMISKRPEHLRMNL
# method-summary: P70S6K enzyme assay
# measurement-parameters: P70S6K T412E mutant 3 nM, 24 μM ATP, FITC-AHA-AKRRRLSSLRA-OH substrate, 90 min at 25° C.; read-out: IC50p70S6K
observable: IC50 (nM)
Number only, in nM; omit the unit.

Report measured IC50; entry is CCc1nc(N[C@@H]2CNC[C@H]2c2cccc(F)c2)c2cccc(C(N)=O)c2n1 (racemic) 5.5

Give the reported value of IC50 for this record: NC(=O)c1cccc2c(N[C@H]3CNC[C@@H]3c3cccc(F)c3F)ncnc12 (racemic) 4.1

Return reported IC50. Input compound: NC(=O)c1cccc2c(N[C@H]3CNC[C@@H]3c3ccc(Cl)c(F)c3)ncnc12 (racemic) [compound 99] 0.088

Given the compound NC(=O)c1cccc2c(N[C@@H]3CNC[C@H]3c3ccccc3Cl)ncnc12 , write its reported IC50. 1.4

For the compound NC(=O)c1cc(F)cc2c(N[C@@H]3CNCC[C@H]3c3ccccc3)ncnc12 (racemic) , give its reported IC50. 7.1

Give a short answer stating reported IC50 for NC(=O)c1cccc2c(N[C@@H]3CNC[C@H]3c3ccc(OC(F)(F)F)cc3)ncnc12 . 1.5

Specify IC50 for Cc1cccc([C@@H]2CCNC[C@H]2Nc2ncnc3c(C(N)=O)cccc23)c1 (racemic) and stop. 3.1

Hello, please tell me recorded IC50 for this one: NC(=O)c1cccc2c(NC3CNCC3c3ccccc3F)ccnc12 (centres unmarked) 9.4

====

Kindly supply the reported IC50 values for the records listed here.
# study-target: P70S6K (Homo sapiens, UniProt P23443, T412E)
# method-summary: P70S6K enzyme assay
# measurement-parameters: P70S6K T412E mutant 3 nM, 24 μM ATP, FITC-AHA-AKRRRLSSLRA-OH substrate, 90 min at 25° C.; read-out: IC50p70S6K
Please state the figure in nM; there is no need to write the unit.

Output IC50 of COc1ccc([C@@H]2CNC[C@H]2Nc2ncnc3c(C(N)=O)cccc23)cc1F [compound 62] 1.5

Give the reported value of IC50 for this record: NC(=O)c1cccc2c(N[C@@H]3CNC[C@H]3c3ccc(Cl)c(F)c3)ncnc12 [compound 101] 1.1

// Input: Cc1nc(N[C@@H]2CNCC[C@H]2c2ccc(F)cc2)c2cccc(C(N)=O)c2n1 (racemic) [compound 132] . Output its IC50 only. 5.4

Supply IC50 value. Item: NC(=O)c1cccc2c(N[C@H]3CNC[C@@H]3c3cccc(OC(F)(F)F)c3)ncnc12 (racemic) [compound 56] 2.4

Provide only the value of recorded IC50 for COc1cccc([C@@H]2CCNC[C@H]2Nc2nc(C)nc3c(C(N)=O)cccc23)c1 (racemic) [compound 126] 4.5

Complete the entry with IC50 for NC(=O)c1cccc2c(N[C@H]3CNC[C@@H]3c3cc(F)cc(C(F)(F)F)c3)ncnc12 [compound 47] 160

Identify measured IC50 associated with CCc1nc(N[C@@H]2CNCC[C@H]2c2ccccc2F)c2cccc(C(N)=O)c2n1 (racemic) [compound 142] 450

====

I'd appreciate it if you could supply pIC50 values for the items below.
# study-target: P70S6K (Homo sapiens, UniProt P23443, T412E)
# method-summary: P70S6K enzyme assay
# measurement-parameters: P70S6K T412E mutant 3 nM, 24 μM ATP, FITC-AHA-AKRRRLSSLRA-OH substrate, 90 min at 25° C.; read-out: IC50p70S6K
# pIC50 is unitless: minus log10 of the molar concentration; print number only

Tell us which pIC50 value is on record for CCc1nc(N[C@@H]2CNCC[C@H]2c2cccc(C)c2)c2cccc(C(N)=O)c2n1 (racemic) 8.30

Give a short answer stating reported pIC50 for NC(=O)c1cccc2c(N[C@H]3CNC[C@@H]3c3ccc(C(F)(F)F)cc3)ncnc12 [compound 53] . 7.18

Please give the documented pIC50 of Cc1nc(NC2CNCC2c2ccc(F)cc2)c2cccc(C(N)=O)c2n1 (stereo not shown) 8.62

Return value of pIC50 for input NC(=O)c1cccc2c(N[C@H]3CNC[C@@H]3c3cc(F)c(F)cc3F)ncnc12 (racemic) , no commentary. 6.38

State, in one line, measured pIC50 of NC(=O)c1cccc2c(N[C@H]3CNC[C@@H]3c3ccc4ccccc4c3)ncnc12 [compound 80] 7.62

Return pIC50 (reported value) for this molecule: NC(=O)c1cccc2c(N[C@H]3CNC[C@@H]3c3cccc(N4CCCC4)c3)ncnc12 (racemic) 8.23

Read the entry COc1ccc([C@@H]2CCNC[C@H]2Nc2ncnc3c(C(N)=O)cccc23)cc1OC (racemic) and write its reported pIC50. 7.74

Query pIC50 for NC(=O)c1cccc2c(NC3CNCC3c3cccc(F)c3)ccnc12 (stereo not shown) 7.89

Give me measured pIC50, please, for this molecule: NC(=O)c1cccc2c(N[C@H]3CNC[C@H]3c3ccc(C(F)(F)F)cc3)ncnc12 8.89

Read off the recorded pIC50 for Cc1cc(C)cc(C2CCNCC2Nc2ncnc3c(C(N)=O)cccc23)c1 (racemic) 8.00

Consider the molecule NC(=O)c1cccc2c(N[C@@H]3CNC[C@@H]3c3cccc(OC(F)(F)F)c3)ncnc12 (racemic) and give its recorded pIC50. 8.05

For NC(=O)c1cccc2c(N[C@H]3CNC[C@@H]3c3ccc4c(c3)CCO4)ncnc12 [compound 90] , write its pIC50. 8.40

Give me measured pIC50, please, for this molecule: NC(=O)c1cccc2c(N[C@H]3CNC[C@@H]3c3ccc(-c4cccnc4)c(F)c3)ncnc12 (racemic) 8.22

For the molecule NC(=O)c1cccc2c(N[C@H]3CNCC[C@@H]3c3ccc(C(F)(F)F)cc3)ncnc12 , report pIC50. 8.92

State, in one line, measured pIC50 of NC(=O)c1cccc2c(N[C@H]3CNC[C@@H]3c3ccc4c(c3)CCO4)ncnc12 (racemic) [compound 89] 8.49

Return pIC50 (reported value) for this molecule: NC(=O)c1cccc2c(N[C@H]3CNC[C@@H]3c3ccc(-c4ccccc4)c(F)c3)ncnc12 (racemic) 8.85
